Listing: pKd of selected sequences
- TESTED TARGET: HBV (hairpin RNA)
- PROTOCOL NOTES: Dissociation constant by competitive fluorescence anisotropy with rhodamine-rev peptide probe
- Type: binding
- TEST CONDITIONS: Table 6
// pKd here means minus log10 of the molar concentration (mol/L)

Illustrative cases are given below, each with its answer.
INPUT SEQUENCE	OBSERVED PROPERTY	ASSAY VALUE
LKKLLKWLKKLLKWAG [Peptide 2g, Ac-LKKLLKWLKKLLKWAG, 18]	pKd	9.00
LKKLLKLLKKWLKWAG [Peptide 2i, Ac-LKKLLKLLKKWLKWAG, 20]	pKd	9.09

So for WKKLWKLLKKLLKLAG [Peptide 2a, Ac-WKKLWKLLKKLLKLAG, 12] , the logged pKd turned out to be 9.11

So for WKKLLKLLKKLWKLAG [Peptide 2d, Ac-WKKLLKLLKKLWKLAG, 15] , the logged pKd turned out to be 9.10

So for WKKLLKWLKKLLKLAG [Peptide 2b, Ac-WKKLLKWLKKLLKLAG, 13] , the logged pKd turned out to be 9.05
